Values compiled from the METLIN SMRT retention time set (Domingo-Almenara et al. 2019).

Assay: gradient 5% acetonitrile 3 min, to 50% in 2 min, to 85% in 15 min, held 3 min, 100 µL/min
Settings: column: Zorbax Extend-C18 2.1 x 50 mm; eluents: water / acetonitrile, 0.1% formic acid
Property: RP-LC retention time; scope: individual molecules
Reply with a number, then the unit it belongs to.

Solved cases below.
[[record]]
molecule = "CCCc1noc(-c2cccn3c(CC(=O)N4CCOCC4)nnc23)n1"
measuredvalue = "626 s"

[[record]]
molecule = "COc1ccc(N2CCN(c3nc(C(=O)N4CCCC4)cs3)CC2)cc1"
measuredvalue = "853 s"

[[record]]
molecule = "Cc1sc(C)c(S(=O)(=O)N2CCCc3ccccc32)c1-c1cc(C(F)(F)F)on1"
measuredvalue = "1290 s"


Which RP-LC retention time reading was recorded for the molecule Cc1ccc(S(=O)(=O)N(c2ccc(Br)cc2)C2C=CS(=O)(=O)C2)cc1 (stereo not drawn) ?
887 s

Which RP-LC retention time reading was recorded for the molecule Cc1cc(C)cc(NC(=O)c2cn3c(n2)CCCC3)c1 ?
644 s

Which RP-LC retention time reading was recorded for the molecule O=C(Cn1ccc2ccccc21)Nc1ccccc1OC(F)(F)F ?
610 s

Which RP-LC retention time reading was recorded for the molecule COc1ccc(-c2cn3cccnc3n2)cc1NC(=O)c1cc(Br)ccc1Cl ?
768 s

Which RP-LC retention time reading was recorded for the molecule Cc1cc(C(=O)Nc2nnc(SCC(=O)N3CCCc4ccccc43)s2)c(C)o1 ?
894 s

Which RP-LC retention time reading was recorded for the molecule Cc1ccc2c(c1)N(S(C)(=O)=O)CCC(C(=O)NC1CC3CCC1C3)O2 (stereo not drawn) ?
941 s

Which RP-LC retention time reading was recorded for the molecule O=C(NCc1ccco1)N(c1ccccc1)c1ccccc1 ?
810 s

Which RP-LC retention time reading was recorded for the molecule CCC1CN2C=Nc3oc(C)c(C(=O)Nc4cccc(Cl)c4)c3C2=N1 (stereo not drawn) ?
695 s

Which RP-LC retention time reading was recorded for the molecule COC(=O)c1cc(S(=O)(=O)N2CCCC2C(=O)Nc2ccc3c(c2)OCCO3)cn1C (stereo not drawn) ?
794 s

Which RP-LC retention time reading was recorded for the molecule N#Cc1cccc(-c2cn3c(n2)N(C(=O)c2cnccn2)CCC3)c1 ?
687 s
